target: HLA-B*08:02; experiment: IEDB peptide-MHC binding, purified MHC/competitive/fluorescence; filed as Kd, often an IC50 or EC50 that approximates it; bounds were set here for any values at or beyond the usual limits of such assays; conditions: source organism: Human immunodeficiency virus 1
readout.type: Kd

### Prompt Fill in: Kd of GTEELKSLY is ___
### Response ≥ 20 µM

----------
molecular target: HLA-A*03:01; assay: IEDB peptide-MHC binding, purified MHC/competitive/fluorescence; bounds were set here for any values at or beyond the usual limits of such assays; conditions: source organism: Sudan ebolavirus
readout.type: pIC50
# pIC50 = -log10(concentration in molar units)

### Prompt For the record GVRGFPRCR , what value of pIC50 is listed for HLA-A*03:01?
### Response 5.95

### Prompt For the record VIYRGVNFA , what value of pIC50 is listed for HLA-A*03:01?
### Response 5.30

Attribution: the Immune Epitope Database (IEDB)
